Assay: Cytotoxicity against human MCF10A cells assessed as growth inhibition at 1230 uM relative to control
Type: cell-based, MCF-10A
Conditions: read-out: GI
Listed compounds paired with reported inhibition at 1230 µM
Report the figure in % without appending any unit label.

CC1(C)C[C@@H]2OC(=O)[C@H](Cc3ccccc3)N=C2[C@@]23C(=O)OC4OCC(=CC[C@@H]12)[C@H]43 (some centres not stated)	22

Name the recorded inhibition at 1230 µM for CC1(C)C[C@@H]2OC(=O)[C@H](Cc3c[nH]c4ccccc34)N=C2[C@@]23C(=O)OC4OCC(=CC[C@@H]12)[C@H]43 (some centres not stated) .
20

====

Assay: Cytotoxicity against mouse McCoy cells assessed as growth inhibition at 1230 uM relative to control
Format: cell-based
Conditions: read-out: GI
Listed molecules paired with reported inhibition at 1230 µM

CC1(C)C[C@@H]2OC(=O)[C@H](Cc3ccccc3)N=C2[C@@]23C(=O)OC4OCC(=CC[C@@H]12)[C@H]43 (some centres not stated)	30%

Now for the molecule whose inhibition at 1230 µM we want.
Name the recorded inhibition at 1230 µM for CC1(C)C[C@@H]2OC(=O)[C@H](Cc3c[nH]c4ccccc34)N=C2[C@@]23C(=O)OC4OCC(=CC[C@@H]12)[C@H]43 (some centres not stated) .
41%
